The measured values listed here are drawn from patent US20260242478A1.

target: T1, PSMA Fab (006 PSMA Fab)
T1 construct: also called Anti-PSMA Fab
assay method text: phage ELISA on captured PSMA Fab pre-incubated with the competitor PSMA antigen, anti-M13-HRP detection
assay metric: phage binding ELISA signal, Anti-PSMA Fab in the presence of PSMA
API note: the answer field is a bare number with no unit suffix.

YNQYCTPLWMCEGF [Phage-3924]; 0.0796
AQKLCEPMWMCVGF [Phage-3918]; 0.064

Reported phage binding ELISA signal, Anti-PSMA Fab in the presence of PSMA for DRVLCTPTWMCEGF [Phage-3917] was 0.0642

// sample GQIMCIPTWMCSGF [Phage-3921] , its phage binding ELISA signal, Anti-PSMA Fab in the presence of PSMA was 0.0809
